What growth was measured for each of the following?
test system: SK-MEL-2 melanoma; experiment: NCI-60 one-dose screen, 48 h (100 = growth as untreated, 0 = no growth, -100 = all killed); details: 10 µM unless noted
This is part of a sample that, as a whole, favours compounds with a hit. Of some 83,000 tested, about 20% had one in any assay. The source made the active and inactive calls. The calls were made as follows: active = growth percent below 10; inactive = the rest.

Record excerpt, results attached:
- molecule: "Cc1ccccc1Cn1cnc2ccc(-c3cc(NC(=O)c4ccc(NC5CCN(C)CC5)cc4)n[nH]3)cc21"
  assay-value: "98.3% (inactive)"
- molecule: "CCNC(=O)c1[nH]cc(-c2ccccc2)c1-c1cc(OC)c2c(c1OC)OCO2"
  assay-value: "99.9% (inactive)"

Provide the reported growth of each entry below, same order.
1. CCN(C(=O)N1CCN(c2cc3c(cc2F)c(=O)c(C(=O)O)cn3C2CC2)CC1)c1nc(-c2ccc(Cl)cc2)cs1
2. N#CC1CCc2c(c(-c3cn[nH]c3C(F)(F)F)nc3c(F)cc4[nH]ncc4c23)C1 (centres undefined)

(A)
1. 9.44% (active)
2. -34.6% (active)
